Target: human recombinant PAK1-KD protein (Homo sapiens)
Sequence (Q13153 270-521 limits assumed): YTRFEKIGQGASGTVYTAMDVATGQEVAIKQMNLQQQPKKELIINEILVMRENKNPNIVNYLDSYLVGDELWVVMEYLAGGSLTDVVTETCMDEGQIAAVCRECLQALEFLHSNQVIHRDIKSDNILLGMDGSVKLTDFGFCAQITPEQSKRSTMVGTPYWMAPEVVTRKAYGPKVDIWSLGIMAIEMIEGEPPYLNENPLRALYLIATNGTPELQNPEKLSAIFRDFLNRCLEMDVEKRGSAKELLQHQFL
Assay: PAK1-KD (Kinase Domain) IC50 Zlyte Assay (FRET peptide substrate phosphorylation)
Conditions: Z'-LYTE, Biological Example 1
pKi: −log10 of the molar value.
OBSERVATION TYPE: pKi

Some entries whose results are on file:
MOLECULE: CNc1ncc2cc(-c3ccc(-c4nc(C)cs4)cc3Cl)c(=O)n(C[C@H]3CNCCO3)c2n1 [Example I-189]
pKi: 7.59
//
MOLECULE: Cc1cccc(-c2ccc(-c3cc4cnc(NC5COC5)nc4n(CCC4CNCCO4)c3=O)c(C)c2)n1 (single isomer, unassigned) [Example I-114]
pKi: 9.15
//
MOLECULE: CCc1cc(-c2cncc(C)n2)ccc1-c1cc2cnc(NC)nc2n(CCCN)c1=O [Example I-131]
pKi: 7.49

[a] CCc1cc(-c2cccc(C)n2)ccc1-c1cc2cnc(NC3COC3)nc2n(CC[C@H]2OC[C@H](N)CO2)c1=O [Example I-198]
[b] Cc1cccc(-c2ccc(-c3cc4cnc(NC(C)C)nc4n(C[C@H]4CC[C@H](N)CC4)c3=O)c(Cl)c2)n1 [Example I-32]
[c] CNc1ncc2cc(-c3ccc(-c4cccc(C)n4)cc3C)c(=O)n(CC(=O)N3CCNCC3)c2n1 [Example I-95]
q: Order the records by pKi, with each subsequent value no larger than the one before. Give your ranking as a list of the labels in the requested order.
a: b, a, c

Origin of measurements: patent US20150031674A1
